Target: T1, AAV8
T1 construct: also called adeno-associated virus serotype 8
Assay: SPR, AAV on CM5 chip;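 further: surface plasmon resonance with AAV amine-coupled to the chip as ligand, nanobodies injected as analyte over a concentration series, rate constants and affinity fitted from binding curves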
The following binders are shown together with reported kon values.
# do not omit the unit; it follows the number

Here's what some known entries look like.
A4-020 (VHH) VHH: VQLQESGGGLVQAGGSLRLSCAASGSTFSINTMGWYRQAPGKQRELVATITRGGNTNYADSVKGRFTISRDNAKNTVYLQMNSLRPEDTAVYYCHVDEVRQSSWTTSNLWGQGTQVTVSS : 112000 M⁻¹ s⁻¹
A4-048 (VHH) VHH: VQLQESGGGLVQPGGSLRLSCAASGSMFSINTMGWYRQAPGKQRELVATVTRGGNTNYAGSVKGRFTISRDNAKNTVYLQMNSLRPEDTAVYYCHVDEVRQSSWTTSNLWGQGTQVTVSS : 2130 M⁻¹ s⁻¹
A4-013 (VHH) VHH: VQLQESGGGLVQPGGSLRLSCAASGSRFSINSMGWYRQAPGKQRELVATVTRGGNTNYADSVKGRFTISRDNAKNTVYLQMNSLRPEDTAVYYCHVDEVRESSWTTSNLWGQGTQVTVSS : 6060 M⁻¹ s⁻¹
A4-036 (VHH) VHH: VQLQESGGGLAQAGGSLRLSCAASGRGFSINTMGWYRQAPGKQRELVAAVTRGGTTNYADSVKGRFTISRDNAKNTVYLQMNSLRPEDTAVYYCHVDEVRQSSWTTSNLWGQGTQVTVSS : 6700 M⁻¹ s⁻¹
A4-003 (VHH) VHH: VQLQESGGGLVQPGGSLRLSCVASGRSFSINTMGWYRQAPGKQRELVAAVTRGGSTNYAGSVKGRFTISRDNAKNTVYLQMNSLRPEDTAVYYCHIDEVRQSSWTTSNIWGQGTQVTVSS : 232000 M⁻¹ s⁻¹
A4-039 (VHH) VHH: VQLQESGGGLVQPGGSLRLSCAASGSGFSINTMGWYRQAPGKWRELVATVTRGGSTNYAGSVKGRFTISRDNAKNTVYLQMNSLRPEDTAVYYCHIDEVRQSSWTTSNLWGQGTQVTVSS : 6290 M⁻¹ s⁻¹
A4-014 (VHH) VHH: VQLQESGGGLVQPGGSLRLSCAASGSRFSINSMGWYRQAPGKQRELVATVTRGGNTNYAGSVKGRFTISRDNAKNTVYLQMNSLRPEDTAVYYCHVDEVRESSWTTSNLWGQGTQVTVSS : 2840 M⁻¹ s⁻¹
A4-040 (VHH) VHH: VQLQESGGGLVQPGGSLRLSCAASGRIFSINTMGWYRQAPGKQRELVATVTRGGSTNYADSVKGRFTISRDNAKNTVYLQMNSLRPEDTAVYYCHVDEIRQSSWTTSNLWGQGTQVTVSS : 164000 M⁻¹ s⁻¹
A4-010 (VHH) VHH: VQLQESGGGLVQAGGSLRLSCAASGSIFSINSMGWYRQAPGKQRELVATVTRGGNTNYADSVKGRFTISRDNAKNTVYLQMNSLRPEDTAVYYCHVDEVRESSWTTSNLWGQGTQVTVSS : 14700 M⁻¹ s⁻¹
A4-017 (VHH) VHH: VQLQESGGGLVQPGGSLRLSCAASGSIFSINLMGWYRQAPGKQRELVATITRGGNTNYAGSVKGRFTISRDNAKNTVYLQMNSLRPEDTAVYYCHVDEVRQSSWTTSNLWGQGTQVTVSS : 1430 M⁻¹ s⁻¹

The binder identified as A4-004 (VHH) VHH: VQLQESGGGLVQPGGSLRLSCAASGSRFSINTMGWYRQAPGKQRELVAAVTRGGSTNYAGSVKGRFTISRDNAKNTVYLQMNSLRPEDTAVYYCHIDEVRQSSWTTSNIWGQGTQVTVSS registered its kon at 167000 M⁻¹ s⁻¹

The binder listed as A4-047 (VHH) VHH: VQLQESGGGLVQPGGSLRLSCAASGSRFSINTMGWYRQAPGKQRELVATVTRGGSTNYAGSVKGRFTISRDNAKNTVYLQMNSLRPEDTAVYYCHVDEVRQSSWTTSNLWGQGTQVTVSS shows kon equal to 193000 M⁻¹ s⁻¹

Provenance of the data: patent US20260193326A1
